The following compounds are listed with their measured z-score values.
Assay: CREB reporter modulators without forskolin, primary screen, cell-based, PC12, CRE-LacZ reporter, unstimulated (AID 1145)
Conditions: no forskolin, luminescence, 4.5 h, higher = more signal, called active from +8 up or from −8 down

{"compound": "CC(=O)NCCCC[C@@H]1NC(=O)[C@@H]2C[C@H](C(=O)NCCCCCCNC(=O)CS)[C@H](c3cccc(OCCO)c3)N2C1=O", "z-score": 0.135}
{"compound": "CC(C)(C)OC(=O)CC[C@]1(C(=O)NCC(O)CO)COC(c2ccc(OCCCO)cc2)=N1 (stereo partly drawn)", "z-score": -0.412}
{"compound": "COc1ccc(CCNC(=O)[C@@]2(C)c3ccccc3C(=O)N(Cc3cc(F)cc(C(F)(F)F)c3)[C@H]2c2ccc(CO)cc2)cc1", "z-score": 0.001}
{"compound": "CC(C)[C@@H](CO)NC(=O)[C@H]1[C@@H](c2ccccc2)N(c2ccccc2)O[C@@H]1C", "z-score": -0.415}
{"compound": "CN1C(=O)[C@]2(Cc3ccccc3)N=C(c3ccc(OCCCO)cc3)O[C@@H]2c2ccccc21", "z-score": 0.456}
{"compound": "CCC(CC)C(O)C1C=CC2C(=O)N(C)C(=O)C2N1Nc1ccccc1 (stereo not drawn)", "z-score": 0.822}
{"compound": "CCOC(=O)[C@H]1C/C=C/C[C@H](C(=O)OCC)C(=O)O[C@H]2[C@@H](OC)O[C@H](CO)[C@@H](OC(=O)Nc3ccc(C#N)cc3)[C@@H]2OC1=O", "z-score": -1.29}
{"compound": "Cc1ccc(S[C@]2(C(=O)NC(C)C)CC(=O)N(Cc3ccccc3Cl)[C@@H]2c2ccc(CO)cc2I)cc1", "z-score": -0.374}

----------
Tested on: XIP peptide (Xip251-270) binding
Test: small-molecule binders of XIP peptide, primary screen, biochemical, small-molecule microarray, fluorescence 635/667 nm, 0.1 µg/mL protein (AID 1182)
Conditions: fluorescent protein binding, 635 nm, higher = more signal, called active from +8 up or from −8 down
The following compounds are listed with their measured composite z-score values.
experimentalEndpoint: composite z-score

{"compound": "C=CCC(OC(C)=O)[C@@H]1[C@@H](N(Cc2ccc(-c3cccc(C(F)(F)F)c3)o2)C(=O)c2ccc(-c3ccccc3)cc2)c2cc(OCCCO)ccc2N1C(=O)c1ccc(-c2ccccc2)cc1 (stereo not given in full)", "valueMeasured": -0.462}
{"compound": "C=CCNC(=O)[C@H]1[C@@H]2C(=O)O[C@@H](c3ccccc3)[C@@H](c3ccccc3)N2[C@@H](c2ccc(O)cc2)[C@]12C(=O)N(C(=O)OCCOC)c1ccc(C#CCNC(N)=O)cc12", "valueMeasured": 0.17}
{"compound": "COCCOC(=O)N1C(=O)[C@@]2(c3cc(C#Cc4ccc(OC)cc4)ccc31)[C@H](c1ccccc1OCCO)N1[C@H](c3ccccc3)[C@H](c3ccccc3)OC(=O)[C@H]1[C@@H]2C(=O)N1CCN(c2ncccn2)CC1", "valueMeasured": -0.349}
{"compound": "Cc1ccc(S[C@]2(C(=O)NCC(C)C)CC(=O)N(Cc3cc(C(F)(F)F)cc(C(F)(F)F)c3)[C@@H]2c2ccc(CO)cc2I)cc1", "valueMeasured": 0.861}
{"compound": "O=C1O[C@@H](c2ccccc2)[C@@H](c2ccccc2)N2[C@@H](c3ccc(OCCO)cc3)[C@]3(C(=O)Nc4ccccc43)[C@@H](C(=O)NC[C@H](O)c3ccccc3)[C@H]12", "valueMeasured": 1.29}
